Source of measurements: patent US20230220589A1

Each record here notes measured P2 score.
target: M44-modified L NTAA target peptides (M44-L-P2-peptide); assay: Gini coefficient of P2 tolerance from multiplex encoding heatmap

binder | P2 score
SEQ ID NO 25 (designed binder, not shown: small tags and cut ends; large carriers) QVSVQPNFQQDKFLGRWFIAGLASNSSWVREKSAALSQAKVVVAPATDGGLNVTVTVLRKNQCETYTVLLQPAGSLGSYSSRSPHFGSTVSLSVVETDYDQYALWYAQGSKGPGEDMRHAELWSRTQTPRAELKEKFTAFSKAQGFTEDTIVFLPQTDKCMTEQ | 0.543
SEQ ID NO 24 (designed binder, not shown: small tags and cut ends; large carriers) QVSVQPNFQQDKFLGRWFYAGLASNSSWLREKCAALSSAKAVVAPATDGGLNVTETWLRKNQCETGTELLQPAGSLGSYSFRSPHRGSTLSLSVVETDYDQYALLYRQGSKGPGEDERRALLMSRTQTPRAELKEKFTAFSKAQGFTEDTIVFLPQTDKCMTEQ | 0.375
SEQ ID NO 46 (designed binder, not shown: small tags and cut ends; large carriers) TVPDRSEIAGKWYVVALASNTEFHLREKDNLKVAMARISFLGEDELKVSEAVPTPNGCMKHESTWKKTSDDGEVYRSRKAKQKVEVLDTDYKSYAVIYATRVKDGRTHHWMLLYSRSPEVSPAATAIFRKLAGERNYTDEMVAMLPRQEECTVDEV | 0.289
SEQ ID NO 26 (designed binder, not shown: small tags and cut ends; large carriers) QVSVQPNFQQDKFLGRWFAAGYASNSSWRRERSAALSMAKVVVAPATDGGLNWTETILRKNQCETATNLLQPAGSLGSYSIRSPHAGSTSSMSVVETDYDQYALLYAQGSKGPGEDFRLAILLSRTQTPRAELKEKFTAFSKAQGFTEDTIVFLPQTDKCMTEQ | 0.498
SEQ ID NO 39 (designed binder, not shown: small tags and cut ends; large carriers) QVSVQPNFQQDKFLGRWFLAGLASNSSWAREKIAALSDAKFVVAPATDGGLNGTVTVLRKNQCETATGLLQPAGSLGSYSWRSPHDGSTLSLSVVETDYDQYALVYEQGSKGPGEDLRIAALWSRTQTPRAELKEKFTAFSKAQGFTEDTIVFLPQTDKCMTEQ | 0.426
SEQ ID NO 22 (designed binder, not shown: small tags and cut ends; large carriers) QVSVQPNFQQDKFLGRWFTAGLASNSSWLREKFAALSHAKTVVAPATDGGLNLTVTVLRKNQCETSTLLLQPAGSLGSYSRRSPHVGSTGSVSVVETDYDQYALIYDQGSKGPGEDWRIAELVSRTQTPRAELKEKFTAFSKAQGFTEDTIVFLPQTDKCMTEQ | 0.431
